Every entry's value here was drawn from patent US7208505B2.

molecular target: human β3 adrenergic receptor (Homo sapiens, UniProt P13945); construct: expressed in transfected cells; test: whole cell receptor coupled c-AMP assay (Emax relative to isoproterenol); type: cell-based; details: % intrinsic activity: maximal response divided by isoproterenol maximal response times 100; transfected CHO cells; average of at least 3 runs
Sequence (P13945 whole entry): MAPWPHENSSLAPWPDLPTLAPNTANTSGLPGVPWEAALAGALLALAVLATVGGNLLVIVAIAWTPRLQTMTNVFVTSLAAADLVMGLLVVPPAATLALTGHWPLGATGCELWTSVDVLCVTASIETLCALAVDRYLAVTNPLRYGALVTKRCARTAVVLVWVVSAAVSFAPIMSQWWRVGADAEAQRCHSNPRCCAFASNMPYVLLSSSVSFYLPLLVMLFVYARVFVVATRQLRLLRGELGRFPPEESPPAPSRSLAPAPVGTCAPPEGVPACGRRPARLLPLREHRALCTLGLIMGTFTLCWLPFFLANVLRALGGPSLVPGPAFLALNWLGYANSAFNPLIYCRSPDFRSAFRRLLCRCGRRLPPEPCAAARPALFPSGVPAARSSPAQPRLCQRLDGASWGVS
The threshold is 60%. Values of Emax (%) ± SEM beneath it are tagged rule met; values meeting or exceeding it are tagged rule not met.

INSERT INTO assay_data (compound, label_value) VALUES
  ('COC(=O)c1cccc2c1ccn2C[C@@H](C)NC[C@H](O)COc1ccccc1-c1cccs1', 'rule met'),
  ('C[C@@H](NC[C@H](O)COc1ccccc1-c1cccs1)C(=O)N1CCc2ccccc21', 'rule met'),
  ('Cc1ccc(-c2ccccc2OC[C@@H](O)CNC(C)(C)Cc2c[nH]c3ccccc23)s1.O=C(O)C(F)(F)F', 'rule not met'),
  ('CC(C)(Cc1c[nH]c2c(Oc3ccc(C#N)cn3)cccc12)NC[C@H](O)COc1ccccc1-c1ccon1', 'rule met'),
  ('CC(C)(Cc1c[nH]c2ccccc12)NC[C@H](O)COc1ccc(F)cc1-c1ccno1', 'rule met'),
  ('CC(C)(Cc1c[nH]c2cc(C=CC#N)ccc12)NC[C@H](O)COc1ccccc1-c1cccs1', 'rule not met'),
  ('CC(C)(Cc1c[nH]c2c(OCC#N)cccc12)NC[C@H](O)COc1ccccc1-c1cocn1.O=C(O)C(F)(F)F', 'rule met'),
  ('CC(C)(Cc1c[nH]c2ccccc12)NC[C@H](O)COc1ccccc1-c1nncs1', 'rule met'),
  ('COC(=O)c1ccc(-c2cccc3c(CC(C)(C)NC[C@H](O)COc4ccccc4-c4cccs4)c[nH]c23)cc1 [Example 178]', 'rule not met'),
  ('CC(C)(Cc1c[nH]c2cc(OCC#N)ccc12)NC[C@H](O)COc1ccccc1-c1cccs1', 'rule not met'),
  ('COC(=O)c1ccc(Oc2cccc3c(CC(C)(C)NC[C@H](O)COc4ccccc4-c4cccs4)c[nH]c23)nc1', 'rule not met'),
  ('CC(C)(Cc1c[nH]c2c(Oc3cc(C#N)ccn3)cccc12)NC[C@H](O)COc1ccccc1-c1cccs1', 'rule not met'),
  ('CC(C)(Cc1c[nH]c2c(-c3ccc(C(N)=O)cc3)cccc12)NC[C@H](O)COc1ccccc1-c1ccon1', 'rule met'),
  ('CC(C)(Cc1c[nH]c2c(Oc3ccc(C#N)cn3)cccc12)NC[C@H](O)COc1ccccc1-c1cccs1', 'rule not met');

---

biological target: human β3 adrenergic receptor (Homo sapiens); construct: expressed in transfected cells; assay: whole cell receptor coupled c-AMP assay (Emax relative to isoproterenol); format: cell-based; settings: CHO, % intrinsic activity: maximal response divided by isoproterenol maximal response times 100; transfected CHO cells; average of at least 3 runs
READOUT NAME: Emax (%)

INSERT INTO results (compound, quantity_unit, operator_symbol, assay_value) VALUES
  ('C[C@H](Cn1ccc2c(OCC(=O)O)cccc21)NC[C@H](O)COc1ccccc1-c1ccns1', '%', '=', 76.7),
  ('CC(C)(Cc1c[nH]c2c(-c3cccc(C(=O)O)c3)cccc12)NC[C@H](O)COc1ccccc1-c1ccon1', '%', '=', 68.8),
  ('CC(C)(Cc1c[nH]c2c(-c3cccc(C(=O)O)c3)cccc12)NC[C@H](O)COc1ccccc1-c1cccs1', '%', '=', 84.1),
  ('CC(C)(CC1=CCc2c(Oc3ccc(C(N)=O)cn3)cccc21)NC[C@H](O)COc1ccccc1-c1cccs1', '%', '=', 85.9),
  ('CC(C)(Cc1c[nH]c2c(CCc3ccc(C(N)=O)cc3)cccc12)NC[C@H](O)COc1ccccc1-c1cccs1', '%', '=', 81.2),
  ('CC(C)(Cc1c[nH]c2ccc(C(=O)O)cc12)NC[C@H](O)COc1ccccc1-c1cccs1', '%', '=', 69.6),
  ('CC(C)(Cc1c[nH]c2c(OCC3=NCCS3)cccc12)NC[C@H](O)COc1ccccc1-c1cccs1', '%', '=', 85),
  ('CC(C)(Cc1c[nH]c2c(-c3ccc(C(=O)O)cc3)cccc12)NC[C@H](O)COc1ccccc1-c1cccs1', '%', '=', 79.2),
  ('CC(C)(Cc1c[nH]c2c(CCc3ccc(S(N)(=O)=O)cc3)cccc12)NC[C@H](O)COc1ccccc1-c1cccs1', '%', '=', 80.9),
  ('CC(C)(Cc1c[nH]c2ccccc12)NC[C@H](O)COc1ccccc1-c1ccc(C(=O)O)s1', '%', '=', 74.6),
  ('CC(C)(Cc1c[nH]c2ccc(OCC(=O)O)cc12)NC[C@H](O)COc1ccccc1-c1cccs1', '%', '=', 73.9),
  ('CC(C)(Cc1c[nH]c2c(CCc3cnccn3)cccc12)NC[C@H](O)COc1ccccc1-c1cccs1', '%', '=', 81.6),
  ('CC(C)(Cc1c[nH]c2cccc(C(=O)O)c12)NC[C@H](O)COc1ccccc1-c1cccs1', '%', '<', 10),
  ('CC(C)(Cc1c[nH]c2c(CCc3ccc(-c4nnn[nH]4)cc3)cccc12)NC[C@H](O)COc1ccccc1-c1cccs1', '%', '=', 86.3),
  ('CC(C)(Cc1c[nH]c2cccc(C(N)=O)c12)NC[C@H](O)COc1ccccc1-c1cccs1', '%', '=', 81.8);
